- assay method text: PAMPA (parallel artificial membrane permeability assay)
- Format: in vitro ADME
- experimental setup: PAMPA, pH 6.5
Positions of bridges follow the written chain, without caps; N, C: chain ends. Non-standard residues stand in square brackets, D forms with d. Residues, ends and D or L forms follow the SMILES beside them. *: point of attachment. NMeF = CN[C@@H](Cc1ccccc1)C(=O)O; NMeI = CC[C@H](C)[C@H](NC)C(=O)O; NMeL = CN[C@@H](CC(C)C)C(=O)O; NMeA = CN[C@@H](C)C(=O)O; Piperidide = C1CCN(*)CC1; dNMeA = CN[C@H](C)C(=O)O; β3hA = C[C@H](N)CC(=O)O; tBu = CC(C)(C)*

compound: CC[C@H](C)[C@@H]1NC(=O)[C@@H](C)N(C)C(=O)C[C@@H](C(=O)N(C)[C@@H](Cc2ccccc2)C(=O)N[C@@H](C)C(=O)N2CCCCC2)NC(=O)[C@H](Cc2ccccc2)NC(=O)[C@H]([C@@H](C)O)NC(=O)[C@@H]2CCCN2C(=O)CNC(=O)[C@H](CC(C)C)N(C)C(=O)[C@H](Cc2ccccc2)N(C)C(=O)[C@H](CC(C)C)N(C)C(=O)[C@H](CC(C)C)NC1=O [DP-283] ([dNMeA]IL[NMeL][NMeF][NMeL]GPTFD[NMeF]A-Piperidide; lactam N-11)
Papp at 18 hours, 50 µM [×10⁻⁶ cm/s]: 1.5
--
compound: CC[C@H](C)[C@H]1C(=O)N(C)[C@@H](C)C(=O)N(C)[C@@H](CC(C)C)C(=O)N[C@@H](COC(C)(C)C)C(=O)N(C)[C@@H](CC(C)C)C(=O)N[C@@H](C)CC(=O)N(C)[C@@H](C)C(=O)N(C)[C@@H](Cc2ccccc2)C(=O)N[C@@H](C)C(=O)N(C)[C@@H](CC(C)C)C(=O)N[C@@H]([C@@H](C)O)C(=O)N[C@@H](Cc2ccccc2)C(=O)N1C [DP-759] (cyclo(A[NMeL]TF[NMeI][NMeA][NMeL]S(tBu)[NMeL][β3hA][NMeA][NMeF]))
Papp at 18 hours, 50 µM [×10⁻⁶ cm/s]: 27

====

- assay method text: PAMPA (parallel artificial membrane permeability assay)
- Type: in vitro ADME
- experimental setup: PAMPA; membrane permeation rate (Pe); 50 mM MOPSO buffer pH 6.5 with 5.0% glycocholic acid, 37° C., 18 hours; read-out: iPAMPA Pe
Positions of bridges follow the written chain, without caps; N, C: chain ends. Non-standard residues stand in square brackets, D forms with d. Residues, ends and D or L forms follow the SMILES beside them. *: point of attachment. NMeF = CN[C@@H](Cc1ccccc1)C(=O)O; NMeL = CN[C@@H](CC(C)C)C(=O)O; NMeV = CN[C@H](C(=O)O)C(C)C; Piperidide = C1CCN(*)CC1; dNMeA = CN[C@H](C)C(=O)O; Sar = CNCC(=O)O; tBu = CC(C)(C)*
readout: Papp at 18 hours, 50 µM (×10⁻⁶ cm/s)

molecule: CC(C)C[C@H]1C(=O)N[C@@H](C(C)C)C(=O)N(C)[C@@H](CC(C)C)C(=O)N(C)[C@@H](CC(C)C)C(=O)N[C@H](C(=O)N(C)[C@@H](Cc2ccccc2)C(=O)N[C@@H](C)C(=O)N2CCCCC2)CC(=O)N[C@H](C(C)C)C(=O)N(C)[C@@H](CC(C)C)C(=O)N(C)[C@@H](Cc2ccccc2)C(=O)N(C)[C@@H](CC(C)C)C(=O)N[C@@H](Cc2c[nH]cn2)C(=O)N1C [DP-586] ([dV][NMeL][NMeF][NMeL]H[NMeL]V[NMeL][NMeL]D[NMeF]A-Piperidide; lactam N-10)
readout: Papp at 18 hours, 50 µM
quantitative result: 0.44

molecule: CC(C)C[C@H]1C(=O)N(C)[C@@H](CC(C)C)C(=O)N(C)[C@@H](Cc2ccccc2)C(=O)N[C@H](C(=O)N2CCCCC2)CC(=O)N[C@@H](C(C)C)C(=O)N(C)CC(=O)N[C@@H]([C@@H](C)O)C(=O)N1C [DP-719] (V[Sar]T[NMeL][NMeL][NMeF]D-Piperidide; lactam N-7)
readout: Papp at 18 hours, 50 µM
quantitative result: 26

molecule: CC(C)C[C@H]1C(=O)N[C@@H]([C@@H](C)O)C(=O)N(C)[C@@H](Cc2ccccc2)C(=O)N(C)[C@@H](CC(C)C)C(=O)NCC(=O)N(C)[C@@H](C(C)C)C(=O)N[C@@H](Cc2ccccc2)C(=O)N[C@H](C(=O)N2CCCCC2)CC(=O)N(C)[C@H](C)C(=O)N[C@@H](COC(C)(C)C)C(=O)N1C [DP-260] ([dNMeA]S(tBu)[NMeL]T[NMeF][NMeL]G[NMeV]FD-Piperidide; lactam N-10)
readout: Papp at 18 hours, 50 µM
quantitative result: 44
